# Test description: yeast display, Sf9 membrane polyspecificity reagent, FACS + sequencing; frameworks hold sequencing errors
Measured metric: polyreactivity (PSR sort gate)

QVQLVESGGGLVQAGGSLRLSCAASGFTFDYNAMGWSRQAPGKERELVAVISSSGSRTYYADSVKGRFTISRDNAKNTVYLQMNSLKPEDTAVYYCAAARIGTRDYWGQGTQVTVSS; high polyreactivity
QVQLVESGGGLVQEGGSLRLSCAASGLISQRNVMGWYRQAPGKERELVARISTSSSGTYYADSVKGRFTISRDNAKNTFYLHMYSLKPEYTAVYYCAVRYRGGAARQIYDYWGQGTQVTVSS; high polyreactivity

* * *

# Test description: yeast display, Sf9 membrane polyspecificity reagent, FACS + sequencing; frameworks hold sequencing errors
Measured metric: polyreactivity (PSR sort gate)

QVQLVESGGGLVQAGGSLRLSCAASGRIFGENAMGWYRQAPGKEREFVAVISISDASTYYADSVKGRFTISRDNAKNTVYLQMNSLKPEDTAVYYCNTDYINGYYIEGEPPYKFDYWGQGTQVTVSS; low polyreactivity
QVQLEESGGGLVQAGGSLRLSCAASGSTIKTYATMGWYRQAHGKERELVAAITSGSSTNYADSVKGRFTISRDTAMNTDYLQMNSLKPEDTAVYYGAADDYYNWYLGEPGDYLGQGTQVTVSS; low polyreactivity

* * *

# Test description: yeast display, Sf9 membrane polyspecificity reagent, FACS + sequencing; frameworks hold sequencing errors
Measured metric: polyreactivity (PSR sort gate)

# annotated cases, reported polyreactivity (PSR sort gate) shown
QVQLVESGGGLVQAGGSLRLSCAASGRIFAQYAMGWYRQAPGKDRELVADISSGVRTYADSVKGRFTISRDNAKNTVYLQMNSLKPEDTAVYYCNAYYIIFTRNDYWGQGTQVNVSS; low polyreactivity
QVQLVESGGGLVQAGCSLRLSCAASGRTFYYAMGWYRQAPGKERYADSVKGRFTISRDNAKNTVYLQMNSLKPEDTAVYYCAAKVPEPTSLDQSDYWGQGTQVTVSS; low polyreactivity
QVQLVESGGGLVQAGGSLRLSCSASGSIFRFNAKGWYRQAPGKERELVASSRWDTASTYYADSVKGRFTISRDNAKNTVYLQMNSLKPEDTAVYYCNAGRPRFYRSRWYYYGYGYWGQGTQVTVSS; high polyreactivity
QVQLVESCGGLVQAGGSHRLSCAASGSTFKGYDMGWYRQAPGKERELVAAIDSGGSTYYADSVKGRFTISRDNAKNTVYLQMNSLKPEDTAVYYCAATGQDTYGLDVVDEYDYWGQGTQVTVSS; low polyreactivity

Here is another sequence to look at.
Q: What does the data say about its polyreactivity (PSR sort gate)? Entry: "QVQLVESGGGLVQAGGSLRISCAASGRIFQYYSMGWYRQAPGKERELLAAMSSRGGSTTYADSVKGRFTISRDNAKNTVYLQMNRLKPEDTAVYYCASDWYYYPQYRQRYYYWGQGTQVTVSS"
Ans: high polyreactivity

* * *

# Test description: yeast display, Sf9 membrane polyspecificity reagent, FACS + sequencing; frameworks hold sequencing errors
Measured metric: polyreactivity (PSR sort gate)

QVQLVESGGGLVQAGGSLRLSCAASGSTFKSYVMGWYRAAPGKERELVAAISTGDSTYYADSVKGRFTISRDNAKNTVYLQMNSLKPEDTAVYYCAADPGYTVEPWEDDYWGQGTQVTVSS; low polyreactivity
QVQLVESGGGLVQAGGSLRLSCAASGFTFYGNAMGWYRQAPGKERELVAAISGRGGSTYYADSVKGRFTISRDNAKNTVYLQMNSRKPEDTAVYYCNKRGPYRWYSAPYGYWGQGTQVTVSS; low polyreactivity

Taken from the nanobody polyreactivity screen of Harvey et al. (2022).
